- protocol: Oral bioavailability in Sprague-Dawley rat at 2 mg/kg
- Type: ADME, organism-based
- settings: in vivo
metric: bioavailability

Which bioavailability value belongs to CC(C)c1cc(Oc2c(Cl)cc(NC(=O)c3noc(=O)[nH]3)cc2Cl)nn(C)c1=O ? 24%

###

- protocol: Dissociation constant, pKa of compound
- Format: physicochemical
metric: pKa
Write the number on its own, no unit after it.

Which pKa value belongs to CC(C)c1cc(Oc2c(Cl)cc(NC(=O)c3noc(=O)[nH]3)cc2Cl)nn(C)c1=O ? 4.5

###

- protocol: Half life in Sprague-Dawley rat at 10 mg/kg, po measured up to 24 hrs by LC-MS/MS analysis
- Assay type: ADME, organism-based
- settings: in vivo
metric: half-life (h)
Lab book: enter the figure in h, no units written.

Which half-life value belongs to Cc1cc(OCP(=O)(O)O)cc(C)c1Cc1ccc(O)c(C(C)C)c1 ? 9.3

###

- protocol: Half life in cynomolgus monkey at 10 mg/kg, po measured up to 24 hrs by LC-MS/MS analysis
- Assay type: ADME, organism-based, Macaca fascicularis
- settings: in vivo
metric: half-life (h)
Lab book: enter the figure in h, no units written.

Which half-life value belongs to Cc1cc(OCP(=O)(O)O)cc(C)c1Cc1ccc(O)c(C(C)C)c1 ? 6.5

###

- protocol: Half life in Beagle dog at 10 mg/kg, po measured up to 24 hrs by LC-MS/MS analysis
- Type: ADME, organism-based, Canis lupus familiaris
- settings: in vivo
metric: half-life (h)
Lab book: enter the figure in h, no units written.

Which half-life value belongs to Cc1cc(OCP(=O)(O)O)cc(C)c1Cc1ccc(O)c(C(C)C)c1 [MB07344] ? 10.2

###

- Organism: Homo sapiens
- protocol: Selectivity index, ratio of EC50 for THRalpha (unknown origin) to EC50 for THRbeta (unknown origin)
Each record is given met if its reported Ratio EC50 is strictly below 10. Records at or above 10 are given not met.

molecule: CC(CO)c1cc(Oc2c(Cl)cc(NC(=O)c3noc(=O)[nH]3)cc2Cl)nn(C)c1=O (racemic)
category: met
--
molecule: CC(C)c1cc(Cc2c(Cl)cc(NCc3noc(=O)[nH]3)cc2Cl)nn(C)c1=O
category: met

Lab note: Ratio EC50 threshold 10. Does this molecule come in strictly under it? CC(C)(O)c1cc(Oc2c(Cl)cc(NC(=O)c3noc(=O)[nH]3)cc2Cl)n[nH]c1=O not met

Lab note: Ratio EC50 threshold 10. Does this molecule come in strictly under it? CC(C)c1cc(C(=O)c2c(Cl)cc(NCc3noc(=O)[nH]3)cc2Cl)nn(C)c1=O met

Lab note: Ratio EC50 threshold 10. Does this molecule come in strictly under it? CCC(O)c1cc(Oc2c(Cl)cc(NC(=O)c3noc(=O)[nH]3)cc2Cl)n[nH]c1=O (racemic) not met

Lab note: Ratio EC50 threshold 10. Does this molecule come in strictly under it? CC(C)c1cc(Oc2c(Cl)cc(-n3nc(C#N)c(=O)[nH]c3=O)cc2Cl)n[nH]c1=O not met

###

- Organism: Homo sapiens
- protocol: Selectivity index, ratio of EC50 for THRalpha (unknown origin) to EC50 for THRbeta (unknown origin)
metric: Ratio EC50
Write the number on its own, no unit after it.

Would you please look over these solved cases?
compound: CC(C)c1cc(Oc2c(Cl)cc(NC(=O)c3noc(=O)[nH]3)cc2Cl)nn(C)c1=O
assay value: 14.1
//
compound: CC(C)c1cc(Oc2c(Cl)cc(NC(C)c3noc(=O)[nH]3)cc2Cl)nn(C)c1=O (racemic)
assay value: 0.2
//
compound: CC(C)c1cc(Oc2c(Cl)cc(N(C)Cc3noc(=O)[nH]3)cc2Cl)nn(C)c1=O
assay value: 0.5

Which Ratio EC50 value belongs to CC(O)c1cc(Oc2c(Cl)cc(NC(=O)c3noc(=O)[nH]3)cc2Cl)n[nH]c1=O (racemic) ? 16.5

Which Ratio EC50 value belongs to Cc1cc(OCP(=O)(O)O)cc(C)c1Cc1ccc(O)c(C(C)C)c1 ? 2.1

Which Ratio EC50 value belongs to CC(C)c1cc(Oc2c(Cl)cc(NC(=O)c3noc(=O)[nH]3)cc2Cl)n[nH]c1=O ? 21.6

Which Ratio EC50 value belongs to CC(C)c1cc(Cc2c(Cl)cc(NC(=O)c3noc(=O)[nH]3)cc2Cl)nn(C)c1=O ? 14.5

Which Ratio EC50 value belongs to CC(C)c1cc(Oc2c(Cl)cc(NCc3noc(=O)[nH]3)cc2Cl)nn(C)c1=O ? 8.6

Which Ratio EC50 value belongs to CC(C)(C)c1cc(Oc2c(Cl)cc(NC(=O)c3noc(=O)[nH]3)cc2Cl)n[nH]c1=O ? 12.3

Which Ratio EC50 value belongs to CC(C)c1cc(C(=O)c2c(Cl)cc(NC(=O)c3noc(=O)[nH]3)cc2Cl)nn(C)c1=O ? 6.1

Which Ratio EC50 value belongs to CC(C)c1cc(Oc2c(Cl)cc(NCc3noc(=O)[nH]3)cc2Cl)n[nH]c1=O ? 1.8
